Experiment: Toxicity liver stage against HepG2, at 10uM
Format: cell-based
Parameters: test concentration 10 uM, cell line HepG2-A16-CD81EGFP
Conditions: human, HepG2-A16-CD81EGFP cells; read-out: INHIBITION
Task for the reader: assign each of the following compounds its reported cytotoxicity at 10 µM.
Give bare numbers, in %.

Worked examples follow.
CCc1nnc2n1CCN(Cc1nc3c(F)cccc3[nH]1)C2    -8.06
CCc1csc(C2CCCN(C(=O)c3c[nH]c(C)n3)C2)n1 (stereo unspecified)    -9.03
Cc1ccc(CN2CCC3(CC2)CCN(Cc2ccoc2)CC3)cc1    3.47
Cn1cccc1CN1CCC2(CC1)CN(c1ccccc1)C(=O)CO2    -130
CCS(=O)(=O)c1ccc2oc([C@H]3CCN(Cc4ccccn4)C3)nc2c1    -0.125

Count: 2. Required value per item: cytotoxicity at 10 µM.
1. Cc1ccc(OCC(O)CN(C)CC(=O)Nc2cc(C)on2)c(C)c1 (stereo unspecified)
2. CC(=O)N1C[C@H]2CCCC(N3CCN(c4ncccn4)CC3)[C@H]2C1 (stereo partly specified)

Result:
[-17.3, 9.46]

Count: 4. Required value per item: cytotoxicity at 10 µM.
1. C=C(C)COc1cccc(C(=O)N2CCC3(CCOCC3)CC2)c1
2. O=C(c1coc2ccccc12)N1CCCC1
3. Cc1ccccc1C(=O)Nc1cnn(CC(=O)NC2CCCC2)c1
4. Cc1noc(C)c1CN1CCCC2(CCN(C(=O)N3CCOCC3)C2)C1 (stereo unspecified)

Result:
1. -47.1
2. -1.15
3. -18.4
4. 3.35

---

Task for the reader: assign each of the following compounds its reported cytotoxicity at 10 µM.
Assay: Toxicity liver stage against HepG2, at 10uM
Assay type: cell-based
Set-up: test concentration 10 uM, cell line HepG2-A16-CD81EGFP
Conditions: human, HepG2-A16-CD81EGFP cells; read-out: INHIBITION
One number for each entry, in %.

Worked examples follow.
CN(C)C(=O)Cn1c(C2CC2)c(CN2CCOCC2)c2cccnc21    -3.99
O=C(N[C@@H]1CN(Cc2ccccn2)[C@@H]2COC[C@@H]21)C1CCC1    8.67
CCN1CCOCC12CCN(C(=O)c1ccsc1)CC2    -146

Count: 5. Required value per item: cytotoxicity at 10 µM.
1. CS(=O)(=O)CC(=O)N1C[C@@H]2COC[C@]2(c2nnc(C3CC3)o2)C1
2. COc1ccccc1N(C)Cc1nc2c(cnn2C)c(=O)[nH]1
3. CS(=O)(=O)N1C[C@H]2CN(CC3CC3)C(=O)[C@H]2C1
4. O=C(O)c1cc2c(nc1-c1cncnc1)CCN(C1CCOC1)CC2 (stereo unspecified)
5. O=C1OCCN1CCc1nc(-c2cc3c4c(c2)CC(=O)N4CCC3)cs1

Result:
[-13.1, -8.48, 6.53, -1.61, -7.1]

---

Test: Toxicity liver stage against HepG2, at 10uM
Assay type: cell-based
Set-up: test concentration 10 uM, cell line HepG2-A16-CD81EGFP
Conditions: human, HepG2-A16-CD81EGFP cells; read-out: INHIBITION
metricName: cytotoxicity at 10 µM (%)
One number for each entry, in %.

Count: 5. Required value per item: cytotoxicity at 10 µM.
1. COc1ccc(OC(F)F)c(NCC(=O)NCC(=O)N2CCCC2)c1
2. Cc1cc(C(=O)N2CCN(c3nc4c(C)cccc4s3)CC2)no1
3. CNC(=O)CN1CCC(CN(C)CCSc2ccccc2)CC1
4. Cc1cccc(C(=O)NCc2ccc(N3CCCCCC3)nc2)n1
5. Cc1noc(C)c1C(C)C(=O)N1CCCN(Cc2cscn2)CC1 (configuration not stated)

Result:
-0.77
12.1
-0.488
-5.34
-4.28

---

Experiment: Toxicity liver stage against HepG2, at 10uM
Format: cell-based
Parameters: test concentration 10 uM, cell line HepG2-A16-CD81EGFP
Details: human, HepG2-A16-CD81EGFP cells; read-out: INHIBITION
metricName: cytotoxicity at 10 µM
Numeric answer plus unit only.

Worked examples follow.
CCc1ncc(C(=O)NCCN(C)S(C)(=O)=O)cn1    4.03%
CC(C)c1cc(NCC(O)c2ccccn2)n2nccc2n1 (stereo unspecified)    13%
COCCS(=O)(=O)NC(C)c1ccccc1Br (stereo unspecified)    1.02%

Count: 5. Required value per item: cytotoxicity at 10 µM.
1. Cc1csc(N2CCN(C(=O)CCc3nccs3)CC2)n1
2. CCc1nccn1C1CCCN(C(=O)c2ccc3[nH]cnc3c2)C1 (stereo unspecified)
3. CC(C)CN1CCCn2nc(CNC(=O)NC(C)(C)C)cc2C1
4. CCC(CC)C(=O)N1CCN(Cc2nc3ccccc3c(=O)[nH]2)CC1
5. O=C(c1ccc(F)c(F)c1)N1C[C@H]2CNC[C@H]2C1

Result:
-3.68%
-7.66%
-4.54%
-17.6%
5.82%

---

Assay: Toxicity liver stage against HepG2, at 10uM
Assay type: cell-based
Design: test concentration 10 uM, cell line HepG2-A16-CD81EGFP
Conditions: human, HepG2-A16-CD81EGFP cells; read-out: INHIBITION
Task for the reader: assign each of the following compounds its reported cytotoxicity at 10 µM.
One number for each entry, in %.

Cc1cc(C)nc(N2CCCC(Cn3cc(CN(C)C)nn3)C2)n1 (centres undefined)    -5.43
Cc1cc(C)n(CC2CN(Cc3ccc(C(N)=O)cc3)CCO2)n1 (centres undefined)    -15.1
Cc1nc(CCCNC(=O)C2CC(=O)N(C3CC3)C2)sc1C (centres undefined)    -12.9

Count: 7. Required value per item: cytotoxicity at 10 µM.
1. Cc1nn(C)c2cn(C(C)C(=O)NCc3ccncc3)nc12 (centres undefined)
2. Cc1ncsc1CCN(C)C(=O)CN1C(=O)OC[C@@H]1c1ccccc1
3. Cc1nnc2n1CCN(C(=O)CN(C)Cc1ccccc1)C2
4. CNC(=O)[C@@H]1C[C@H]2CN(C(=O)c3ccco3)C[C@H]2N1C(C)C
5. CN(Cc1noc(C2CC2)n1)C1CCN(CC(=O)N2CCOCC2)C1 (centres undefined)
6. CNc1nc(CNC(=O)Nc2cccc(F)c2C)cs1
7. COc1ccc(Cl)cc1NCC(=O)NCCNc1ncccn1

Result:
1. 1.91
2. -51.2
3. -4.56
4. -1.84
5. -5.25
6. -5.43
7. -9.24

Count: 7. Required value per item: cytotoxicity at 10 µM.
1. NC1CCN(S(=O)(=O)c2ccc(C(=O)N3CCSCC3)cc2)C1 (centres undefined)
2. Cc1cc(CN2CCN(C(=O)NCc3csc(C)n3)CC2)no1
3. Cc1c[nH]c(CN2CCOC(c3ccc(Cl)c(Cl)c3)C2)c(C)c1=O (centres undefined)
4. O=C(c1cccc(F)c1)N1CCc2ncc(Cn3cccn3)n2CC1
5. Cc1cnccc1CN1CC[C@H](Oc2cccc(F)c2)[C@@](C)(O)C1
6. COc1ccc(N2CCN(C(=O)C3CN(C)C(=O)N3)CC2(C)C)cc1 (centres undefined)
7. COc1ccc2c(ccn2CC(=O)N2CCCC2c2cnn(C)c2)c1 (centres undefined)

Result:
7.1
-17.6
17.7
2.05
-5.55
0.254
3.74

---

Task for the reader: assign each of the following compounds its reported cytotoxicity at 10 µM.
Experiment: Toxicity liver stage against HepG2, at 10uM
Assay type: cell-based
Set-up: test concentration 10 uM, cell line HepG2-A16-CD81EGFP
Settings: human, HepG2-A16-CD81EGFP cells; read-out: INHIBITION
One number for each entry, in %.

Worked examples follow.
Cn1cnnc1CCNC(=O)c1ccccc1OC1CCC1    -2.94
O=C(Cc1nc(-c2ccncc2)n[nH]1)N1CCOCC1    -0.749
CCOCC(=O)N1CCC(C2CCN(Cc3ccc(Cl)cc3)C2)CC1 (stereo unspecified)    -9.15
CCOCCC1(C(=O)N2CCCC(c3ncc[nH]3)C2)CCCC1 (stereo unspecified)    -1.7

Count: 2. Required value per item: cytotoxicity at 10 µM.
1. Cc1ccc(CNC(=O)CCN2CCOC(C(F)(F)F)C2)cc1 (stereo unspecified)
2. Cc1cc(C)nc(NCc2cc3n(n2)CCCN(C(=O)C2CCC2)C3)n1

Result:
[3.71, -120]

---

Assay: Toxicity liver stage against HepG2, at 10uM
Format: cell-based
Set-up: test concentration 10 uM, cell line HepG2-A16-CD81EGFP
Conditions: human, HepG2-A16-CD81EGFP cells; read-out: INHIBITION
metricName: cytotoxicity at 10 µM (%)
Answers are plain numbers, in %.

Count: 4. Required value per item: cytotoxicity at 10 µM.
1. Cc1nc(C)c(C(=O)N2CCc3ccc(F)cc3C2C)o1 (stereo not given)
2. CN1CC(Oc2ccccc2)=NC(SCC(=O)c2ccccc2)=N1
3. O=C1N(Cc2cccnc2)CCC12CCCN(c1ncc(F)cn1)C2 (stereo not given)
4. Cc1nn(C)c(C)c1NC(=O)CNc1cccc(CC(F)(F)F)c1

Result:
-1.65
-6.17
-1
-4.83

Count: 7. Required value per item: cytotoxicity at 10 µM.
1. Cn1ccnc1CNCCNc1ncc(Cl)cc1Cl
2. CCc1nc(C(=O)N2CCOCC2CC(=O)c2ccccc2)c[nH]1 (stereo not given)
3. O=C(CCn1ccc2cc(Br)ccc21)NC[C@@H]1CCCN2CCCC[C@H]12
4. Cc1cc(NC(=O)CN2CCCC(Cn3cncn3)C2)on1 (stereo not given)
5. CC(C)CN1C[C@H]2CCN(C(=O)NC3CCCC3)CC[C@H]2S1(=O)=O
6. O=C(C[C@@H]1COC[C@H]2CN(Cc3ccccn3)C[C@@H]12)N1CCOCC1
7. Cc1nccc(CNS(=O)(=O)N(C)Cc2ccc(Cl)cc2)n1

Result:
1: 0.321; 2: -0.613; 3: 8.35; 4: 1.68; 5: 7.31; 6: -1.63; 7: 29.5

Values compiled from ChEMBL document CHEMBL4513216.
